Before we begin, note that these Kd values for Cyclin-G-associated kinase (Homo sapiens, UniProt O14976) originate from several publications.
target-entity: Cyclin-G-associated kinase (Homo sapiens, UniProt O14976)
Sequence (O14976 whole entry): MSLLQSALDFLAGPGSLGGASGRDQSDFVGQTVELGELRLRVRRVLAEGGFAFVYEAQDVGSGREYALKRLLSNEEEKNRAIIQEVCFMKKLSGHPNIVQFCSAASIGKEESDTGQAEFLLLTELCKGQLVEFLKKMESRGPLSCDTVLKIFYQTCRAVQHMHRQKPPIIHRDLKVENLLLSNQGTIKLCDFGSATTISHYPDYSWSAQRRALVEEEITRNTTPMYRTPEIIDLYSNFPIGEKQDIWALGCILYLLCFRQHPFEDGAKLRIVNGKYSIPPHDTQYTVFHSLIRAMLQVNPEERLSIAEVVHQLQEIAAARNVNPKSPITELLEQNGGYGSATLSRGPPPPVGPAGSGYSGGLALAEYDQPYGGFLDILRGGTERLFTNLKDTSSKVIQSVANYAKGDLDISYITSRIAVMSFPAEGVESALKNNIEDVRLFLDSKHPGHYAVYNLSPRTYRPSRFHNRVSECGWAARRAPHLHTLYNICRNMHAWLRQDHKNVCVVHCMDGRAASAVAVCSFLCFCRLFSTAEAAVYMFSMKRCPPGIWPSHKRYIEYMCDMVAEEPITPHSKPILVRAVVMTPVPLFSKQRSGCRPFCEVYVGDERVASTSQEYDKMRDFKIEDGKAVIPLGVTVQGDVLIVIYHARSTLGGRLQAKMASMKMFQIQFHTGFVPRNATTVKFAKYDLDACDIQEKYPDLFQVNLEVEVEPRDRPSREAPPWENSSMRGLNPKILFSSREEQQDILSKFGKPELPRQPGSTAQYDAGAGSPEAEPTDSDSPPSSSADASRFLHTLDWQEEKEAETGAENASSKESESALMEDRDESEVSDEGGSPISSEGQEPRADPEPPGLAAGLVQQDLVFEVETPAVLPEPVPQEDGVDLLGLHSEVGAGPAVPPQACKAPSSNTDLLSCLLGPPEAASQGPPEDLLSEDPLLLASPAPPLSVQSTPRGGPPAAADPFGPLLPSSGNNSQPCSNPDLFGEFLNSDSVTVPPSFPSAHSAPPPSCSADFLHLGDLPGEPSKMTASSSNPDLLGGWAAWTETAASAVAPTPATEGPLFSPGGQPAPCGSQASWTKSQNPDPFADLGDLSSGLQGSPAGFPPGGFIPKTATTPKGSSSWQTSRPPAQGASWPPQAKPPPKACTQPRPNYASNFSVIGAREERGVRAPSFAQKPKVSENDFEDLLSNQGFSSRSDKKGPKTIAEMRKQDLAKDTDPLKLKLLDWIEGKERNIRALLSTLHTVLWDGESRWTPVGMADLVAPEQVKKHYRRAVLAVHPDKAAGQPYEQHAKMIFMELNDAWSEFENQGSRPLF
Records here are stratified by Kd; strata: group 1 = under 200 nM, group 2 = from 200 nM up to 500 nM, group 3 = 500 nM and over

{"columns": ["structure-smiles", "label"],
 "data": [
  ["COCCOc1cc2ncnc(Nc3cc(OC)c(OC)c(OC)c3)c2cc1OCCOC", "group 1"],
  ["COc1ccc2nccc(Nc3cc(OC)c(OC)c(OC)c3)c2c1", "group 1"],
  ["C#Cc1cccc(Nc2ccnc3cc(OCCOC)c(OCCOC)cc23)c1", "group 3"],
  ["COc1cc(-c2cnc3c(N4CCOCC4)snc3c2)ccc1O", "group 1"],
  ["COc1cc2nccc(Nc3cccc(Br)c3)c2cc1OC", "group 2"],
  ["NC(=O)c1ccc(Nc2cc(-c3ccc(F)cc3)n[nH]2)cc1", "group 2"],
  ["COc1cc(N(C)c2ccnc3ccc(C(F)(F)F)cc23)cc(OC)c1OC", "group 3"],
  ["COc1ccc(-c2cnc3c(-c4ccncc4)snc3c2)cc1OC", "group 3"],
  ["COc1ccc(-c2cnc3c(-c4ccsc4)snc3c2)cc1OC", "group 3"],
  ["COc1cc2ncnc(Nc3cc(OC)c(OC)c(OC)c3)c2cc1OC", "group 1"]
]}
